# protocol.text: Stabilization of d[AGAG3AG2GCGCTG3AG2AG3GCT] sequence of c-kit1 G-quadruplex DNA assessed as change in melting temperature at 1 uM by FRET assay
Give measured change in melting temperature (ΔTm) for each item. Keep answers brief.
Give bare numbers, in °C.

> print(dat)
                                  structure  test.result
1  O=C(CCCN1CCCC1)Nc1cc(NC(=O)Nc2cc(NC(=O)CCCN3CCCC3)cc(C(=O)Nc3ccccc3)c2)cc(C(=O)Nc2ccccc2)c1          6.3

Would you mind listing change in melting temperature (ΔTm) for each of the following compounds?
1. O=C(CCN1CCCCC1)Nc1ccc(NC(=O)c2cccc(NC(=O)Nc3cccc(C(=O)Nc4ccc(NC(=O)CCN5CCCCC5)cc4)c3)c2)cc1
2. O=C(CN1CCCC1)Nc1cccc(NC(=O)c2cccc(NC(=O)Nc3cccc(C(=O)Nc4cccc(NC(=O)CN5CCCC5)c4)c3)c2)c1
3. CN(C)c1ccc(Nc2c3ccc(NC(=O)CCN4CCCC4)cc3nc3cc(NC(=O)CCN4CCCC4)ccc23)cc1
4. O=C(CN1CCCC1)Nc1cccc(NC(=O)c2ccc(NC(=O)Nc3ccc(C(=O)Nc4cccc(NC(=O)CN5CCCC5)c4)cc3)cc2)c1
5. O=C(CCN1CCCC1)Nc1cc(NC(=O)Nc2cc(NC(=O)CCN3CCCC3)cc(C(=O)Nc3ccccc3)c2)cc(C(=O)Nc2ccccc2)c1
6. O=C(CCCN1CCCC1)Nc1cccc(NC(=O)c2cccc(NC(=O)Nc3cccc(C(=O)Nc4cccc(NC(=O)CCCN5CCCC5)c4)c3)c2)c1

[7, 3.4, 20.1, 0.7, 4.9, 7.8]

Values from ChEMBL document CHEMBL1151765
